System: ARO
TEST SUMMARY: MTT growth inhibition, ARO anaplastic thyroid cells
Format: cell-based, human
ASSAY SETUP: Homo sapiens, Thyroid cell, 72 h, read-out: GI50 ARO
MEASURED ENDPOINT: GI50

COc1cc(Cn2ccc3c4c(=O)cc(-c5ccccc5)[nH]c4ccc32)cc(OC)c1OC: 0.58 µM
CCn1ccc2c3c(=O)c(-c4ccccc4)c[nH]c3ccc21: > 50 µM
CCn1ccc2c3c(=O)cc(-c4cccnc4)[nH]c3ccc21: 0.45 µM

For each of the molecules below, state GI50.
1. CCn1cc(C#N)c2c3c(=O)cc(-c4ccccc4)[nH]c3ccc21
2. CCn1ccc2c3c(=O)c(-c4ccc(Br)cc4)c[nH]c3ccc21
3. CCOC(=O)CCn1ccc2c3c(=O)cc(-c4ccccc4)[nH]c3ccc21
4. O=c1c(-c2ccccc2)c[nH]c2ccc3[nH]ccc3c12
5. CCn1ccc2c3c(=O)c(-c4cccc(OC)c4)c[nH]c3ccc21

Found:
1: > 50 µM; 2: > 50 µM; 3: 0.55 µM; 4: > 50 µM; 5: > 50 µM

Lookup: Give a short answer stating reported GI50 for CCn1cc(C)c2c3c(=O)cc(-c4ccccc4)[nH]c3ccc21 .
Found: > 50 µM
